target: Nav 1.5 (Homo sapiens (Human), UniProt Q14524); experiment: Nav 1.5 in vitro assay, IonWorks Quattro (IWQ) population patch-clamp; type: cell-based; conditions: HEK 293 cells stably transfected with Nav 1.5; 26th pulse to -20 mV
Sequence (Q14524 whole entry): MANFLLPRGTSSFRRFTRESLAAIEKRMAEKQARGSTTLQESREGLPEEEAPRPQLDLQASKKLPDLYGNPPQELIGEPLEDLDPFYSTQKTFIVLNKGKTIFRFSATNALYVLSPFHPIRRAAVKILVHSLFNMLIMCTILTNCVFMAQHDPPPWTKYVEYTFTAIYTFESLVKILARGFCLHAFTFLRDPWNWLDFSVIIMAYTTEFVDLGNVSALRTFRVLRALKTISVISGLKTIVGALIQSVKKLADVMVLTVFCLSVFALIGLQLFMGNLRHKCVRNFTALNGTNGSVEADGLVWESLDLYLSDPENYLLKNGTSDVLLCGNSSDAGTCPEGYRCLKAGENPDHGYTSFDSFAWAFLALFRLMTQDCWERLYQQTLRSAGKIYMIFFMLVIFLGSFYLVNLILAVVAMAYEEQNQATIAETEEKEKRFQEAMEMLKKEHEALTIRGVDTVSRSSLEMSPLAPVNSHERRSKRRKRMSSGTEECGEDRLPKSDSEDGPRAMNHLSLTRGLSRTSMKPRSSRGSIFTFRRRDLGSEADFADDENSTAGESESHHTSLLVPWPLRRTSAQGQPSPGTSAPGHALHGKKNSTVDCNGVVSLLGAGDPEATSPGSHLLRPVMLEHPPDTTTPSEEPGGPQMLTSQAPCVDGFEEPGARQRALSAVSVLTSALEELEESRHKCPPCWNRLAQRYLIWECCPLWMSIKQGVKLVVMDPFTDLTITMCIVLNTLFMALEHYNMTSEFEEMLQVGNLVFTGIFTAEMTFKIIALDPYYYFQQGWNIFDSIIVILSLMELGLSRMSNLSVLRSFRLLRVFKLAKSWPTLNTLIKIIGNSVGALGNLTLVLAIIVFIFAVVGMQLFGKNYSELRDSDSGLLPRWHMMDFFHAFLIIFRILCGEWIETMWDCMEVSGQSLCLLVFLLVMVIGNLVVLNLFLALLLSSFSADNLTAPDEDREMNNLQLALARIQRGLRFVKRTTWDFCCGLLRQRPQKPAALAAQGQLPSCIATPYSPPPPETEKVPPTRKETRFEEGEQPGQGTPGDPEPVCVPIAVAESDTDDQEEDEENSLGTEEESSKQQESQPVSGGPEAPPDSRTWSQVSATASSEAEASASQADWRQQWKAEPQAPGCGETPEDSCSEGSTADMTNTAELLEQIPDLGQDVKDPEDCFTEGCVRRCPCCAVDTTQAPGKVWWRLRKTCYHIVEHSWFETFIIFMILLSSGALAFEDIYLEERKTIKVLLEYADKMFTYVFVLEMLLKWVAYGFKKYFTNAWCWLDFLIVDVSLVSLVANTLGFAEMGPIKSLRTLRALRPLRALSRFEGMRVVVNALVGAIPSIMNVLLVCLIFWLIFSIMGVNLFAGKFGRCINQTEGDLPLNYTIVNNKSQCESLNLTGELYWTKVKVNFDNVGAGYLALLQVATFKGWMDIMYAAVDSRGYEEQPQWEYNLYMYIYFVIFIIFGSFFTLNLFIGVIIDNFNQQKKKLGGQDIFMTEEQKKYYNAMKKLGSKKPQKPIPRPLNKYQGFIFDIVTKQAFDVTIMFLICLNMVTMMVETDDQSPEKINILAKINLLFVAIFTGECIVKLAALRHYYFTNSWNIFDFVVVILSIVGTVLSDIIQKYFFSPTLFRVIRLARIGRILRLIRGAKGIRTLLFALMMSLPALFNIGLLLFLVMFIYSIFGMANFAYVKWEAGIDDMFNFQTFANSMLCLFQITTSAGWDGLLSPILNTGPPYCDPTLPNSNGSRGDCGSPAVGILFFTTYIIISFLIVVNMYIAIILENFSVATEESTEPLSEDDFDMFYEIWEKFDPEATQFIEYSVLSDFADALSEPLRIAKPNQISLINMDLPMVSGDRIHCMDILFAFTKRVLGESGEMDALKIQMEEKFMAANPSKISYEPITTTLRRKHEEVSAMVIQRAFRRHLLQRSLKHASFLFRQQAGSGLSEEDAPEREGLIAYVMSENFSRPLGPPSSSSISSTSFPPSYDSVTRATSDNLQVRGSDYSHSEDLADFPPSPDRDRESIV
pIC50: −log10 of the molar value.
Observation Type: pIC50

In the examples that follow, each entry is paired with its recorded pIC50.
- COc1cnc(N2CCOc3cc(S(=O)(=O)Nc4nccs4)ccc32)c(OC)c1: < 5.00
- N#Cc1cccc(Cl)c1N1CCOc2cc(S(=O)(=O)Nc3nccs3)ccc21: < 5.00
- O=S(=O)(Nc1ccncn1)c1ccc2c(c1)OCCN2c1ncc(C(F)(F)F)cc1Cl: < 5.00
- CCOc1cccc(N2CCOc3cc(S(=O)(=O)Nc4nccs4)ccc32)c1 [Example 162, 2,2,2-Trifluoroacetate]: < 5.00
- COc1cc(C#N)ccc1N1CCOc2cc(S(=O)(=O)Nc3nccs3)c(F)cc21: 5.88

Memo: COc1ccc(N2CCOc3cc(S(=O)(=O)Nc4nccs4)ccc32)cc1C#N , reported pIC50: < 5.00

Memo: Cc1ccc(F)cc1N1CCOc2cc(S(=O)(=O)Nc3nccs3)ccc21 [Example 79, 2,2,2-Trifluoroacetate] , reported pIC50: < 5.00

Memo: CCOc1ccc(N2CCOc3cc(S(=O)(=O)Nc4nccs4)ccc32)cn1 , reported pIC50: 5.42

###

Each item that follows carries a reported pIC50.
Molecular target: Nav 1.7 (Homo sapiens (Human), UniProt Q15858)
Sequence (Q15858 whole entry): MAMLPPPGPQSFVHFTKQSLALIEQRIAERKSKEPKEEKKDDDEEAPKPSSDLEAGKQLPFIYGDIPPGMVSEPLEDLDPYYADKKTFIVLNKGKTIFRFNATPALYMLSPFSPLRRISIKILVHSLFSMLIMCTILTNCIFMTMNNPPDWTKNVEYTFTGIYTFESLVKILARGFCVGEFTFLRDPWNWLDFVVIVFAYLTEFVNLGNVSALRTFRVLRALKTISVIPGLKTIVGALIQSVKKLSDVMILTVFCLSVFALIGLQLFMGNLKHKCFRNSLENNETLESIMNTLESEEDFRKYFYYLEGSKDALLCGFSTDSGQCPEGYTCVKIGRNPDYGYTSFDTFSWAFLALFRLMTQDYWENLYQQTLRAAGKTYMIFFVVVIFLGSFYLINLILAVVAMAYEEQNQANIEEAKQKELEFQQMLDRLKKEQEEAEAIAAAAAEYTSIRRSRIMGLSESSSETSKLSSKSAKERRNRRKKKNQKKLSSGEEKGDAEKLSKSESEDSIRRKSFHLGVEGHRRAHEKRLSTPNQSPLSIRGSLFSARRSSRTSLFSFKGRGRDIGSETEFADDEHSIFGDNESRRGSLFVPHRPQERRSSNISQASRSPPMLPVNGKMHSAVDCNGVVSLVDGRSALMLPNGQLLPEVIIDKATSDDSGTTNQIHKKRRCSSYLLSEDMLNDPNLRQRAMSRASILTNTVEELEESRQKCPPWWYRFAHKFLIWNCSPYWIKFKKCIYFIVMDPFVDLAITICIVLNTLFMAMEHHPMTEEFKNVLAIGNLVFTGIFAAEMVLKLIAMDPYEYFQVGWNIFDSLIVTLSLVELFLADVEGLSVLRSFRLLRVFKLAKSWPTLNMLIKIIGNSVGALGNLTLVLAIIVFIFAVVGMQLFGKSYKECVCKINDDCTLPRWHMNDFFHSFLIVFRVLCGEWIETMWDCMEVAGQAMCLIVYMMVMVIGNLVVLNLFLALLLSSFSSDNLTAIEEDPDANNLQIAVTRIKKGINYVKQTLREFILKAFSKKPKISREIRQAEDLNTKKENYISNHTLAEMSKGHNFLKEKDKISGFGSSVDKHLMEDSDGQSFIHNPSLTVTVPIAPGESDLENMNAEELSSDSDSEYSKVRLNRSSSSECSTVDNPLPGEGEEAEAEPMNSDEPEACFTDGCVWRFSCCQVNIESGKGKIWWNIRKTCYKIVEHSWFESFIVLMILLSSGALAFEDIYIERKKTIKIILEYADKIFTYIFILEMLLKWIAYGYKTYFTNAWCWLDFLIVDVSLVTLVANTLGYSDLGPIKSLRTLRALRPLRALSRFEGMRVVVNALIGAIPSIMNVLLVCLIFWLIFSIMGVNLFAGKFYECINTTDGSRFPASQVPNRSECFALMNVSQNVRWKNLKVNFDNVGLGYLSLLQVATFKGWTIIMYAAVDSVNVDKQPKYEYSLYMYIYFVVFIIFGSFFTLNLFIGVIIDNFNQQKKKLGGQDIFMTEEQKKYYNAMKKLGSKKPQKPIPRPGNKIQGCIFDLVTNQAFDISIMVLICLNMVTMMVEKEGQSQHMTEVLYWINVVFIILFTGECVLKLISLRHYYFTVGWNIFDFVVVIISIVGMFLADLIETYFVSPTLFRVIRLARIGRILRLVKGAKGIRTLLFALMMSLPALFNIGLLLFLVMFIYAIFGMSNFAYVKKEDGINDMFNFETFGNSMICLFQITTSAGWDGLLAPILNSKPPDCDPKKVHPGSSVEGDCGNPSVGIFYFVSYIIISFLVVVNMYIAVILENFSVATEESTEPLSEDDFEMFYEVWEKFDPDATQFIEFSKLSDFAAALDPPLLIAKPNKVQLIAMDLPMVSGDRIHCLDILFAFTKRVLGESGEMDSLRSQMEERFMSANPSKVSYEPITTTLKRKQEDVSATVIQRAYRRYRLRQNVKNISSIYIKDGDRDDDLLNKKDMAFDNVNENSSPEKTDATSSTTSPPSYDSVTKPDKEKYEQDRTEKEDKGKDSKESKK
Assay: Nav 1.7 in vitro assay, IonWorks Quattro (IWQ) population patch-clamp
Type: cell-based
Conditions: HEK 293 cells stably transfected with Nav 1.7; 26th pulse to -20 mV
Method: Nav 1.7 and Nav 1.5 In Vitro Assays HEK 293 cells stably transfected with either Nav 1.7 or with Nav 1.5 were recorded in population patch-clamp mode with the IonWorks® Quattro automated electrophysiology system in accordance with the manufacturer's specifications (Molecular Devices, LLC, Sunnyvale, Calif.). Sodium channel currents were measured in response to a train of depolarizations that induced successively greater inactivation. […]
Quick note: pIC50 means taking -log10 of the concentration in moles per liter.

In the examples that follow, each entry is paired with its recorded pIC50.
• O=S(=O)(Nc1ncns1)c1ccc2c(c1)OCCN2c1ccccc1 [Example 30] = 6.85
• [N-]=[N+]=Nc1ccc(N2CCOc3cc(S(=O)(=O)Nc4nccs4)ccc32)c(C2=CCNCC2)c1 [Example 65, Bis(2,2,2-Trifluoroacetate)] = 7.62

Memo: N#Cc1cc(C(F)(F)F)ccc1N1CCOc2cc(S(=O)(=O)Nc3nccs3)c(Cl)cc21 [Example 212] , reported pIC50: 7.67

Memo: COc1ccc(C)nc1N1CCOc2cc(S(=O)(=O)Nc3nccs3)ccc21 [Example 109] , reported pIC50: 6.60

Memo: O=S(=O)(Nc1cccnn1)c1ccc2c(c1)OCCN2c1ccc(C(F)(F)F)cc1C1=CCNCC1 [Example 87] , reported pIC50: 7.59

Memo: COc1cc(C#N)ccc1N1C[C@H](C)Oc2cc(S(=O)(=O)Nc3nccs3)ccc21 (single isomer, unassigned) [Example 107] , reported pIC50: 7.55

Memo: O=S(=O)(Nc1nccs1)c1ccc2c(c1)OCCN2c1ccc(C(F)(F)F)cc1CC(O)CO (racemic) [Example 207] , reported pIC50: 7.60

Memo: O=S(=O)(Nc1nccs1)c1ccc2c(c1)OCCN2c1ccc2ncsc2c1 [Example 71, 2,2,2-Trifluoroacetate] , reported pIC50: 6.22

Memo: O=S(=O)(Nc1ncns1)c1ccc2c(c1)OCCN2c1cccc2ncccc12 [Example 33] , reported pIC50: 6.85

Memo: Cc1cc(F)cnc1N1CCOc2cc(S(=O)(=O)Nc3nccs3)ccc21 [Example 110] , reported pIC50: 5.77

Memo: COc1cnc(N2CCOc3cc(S(=O)(=O)Nc4nccs4)ccc32)c(OC)n1 [Example 143] , reported pIC50: 6.00

Memo: Cc1ccc(F)c(N2CCOc3cc(S(=O)(=O)Nc4nccs4)ccc32)c1 [Example 80, 2,2,2-Trifluoroacetate] , reported pIC50: 6.90

Memo: Cc1cccc(N2CCOc3cc(S(=O)(=O)Nc4nccs4)ccc32)c1 [Example 75, 2,2,2-Trifluoroacetate] , reported pIC50: 6.74

Memo: O=S(=O)(Nc1nccs1)c1ccc2c(c1)OCCN2c1ccc(OCC(F)(F)F)cc1 [Example 113] , reported pIC50: 6.05

Memo: C[C@H]1COc2cc(S(=O)(=O)Nc3nccs3)ccc2N1c1ccc(C(F)(F)F)cc1C#N (single isomer, unassigned) [Example 98] , reported pIC50: 6.00

Memo: O=S(=O)(Nc1ncns1)c1ccc2c(c1)OCCN2c1ccc(C(F)(F)F)cc1-c1cn[nH]c1 [Example 4] , reported pIC50: 8.03
